- test: Highest frequency of moderate liver toxicity observed during clinical trials, expressed as a percentage. [column '% BIOL' in source]
- assay-conditions: human, Liver
result-type: Hepatotoxicity (moderate) (%)
# number only, unit % dropped from output

Example results:
compound="CCCC(=O)Nc1ccc(OCC(O)CNC(C)C)c(C(C)=O)c1 (centres undefined) [ACEBUTOLOL]" observed=0
compound="NC(CO)(CO)CO [TROMETHAMINE]" observed=0
compound="O=C(O)COc1nn(Cc2ccccc2)c2ccccc12 [BENDAZAC]" observed=0

Continue with the next compound.
Looking for the measured Hepatotoxicity (moderate) of CC1=C(C(=O)O)N2C(=O)[C@@H](NC(=O)[C@H](N)c3ccc(O)cc3)[C@H]2SC1 [CEFADROXIL] , can you help?
3.1

* * *

- test: Highest frequency of acute liver toxicity observed during clinical trials, expressed as a percentage. [column '% AIGUE' in source]
- assay-conditions: human, Liver
result-type: Hepatotoxicity (acute)

compound="NC(=O)N1c2ccccc2C=Cc2ccccc21 [CARBAMAZEPINE]" observed=0.2%
compound="CCCCNc1cc(C(=O)O)cc(S(N)(=O)=O)c1Oc1ccccc1 [BUMETANIDE]" observed=0%
compound=NC(N)=Nc1nc(CSCCC(N)=NS(N)(=O)=O)cs1 observed=0%

Now examine the next entry.
Can you look up the measured Hepatotoxicity (acute) of CCc1c2c(nc3ccc(OC(=O)N4CCC(N5CCCCC5)CC4)cc13)-c1cc3c(c(=O)n1C2)COC(=O)[C@]3(O)CC for me?
4.2%

* * *

- assay-conditions: human, Liver
Known Hepatotoxicity (choleostasis) of a selection of molecules
Answer with a bare number; do not write a unit.

As a guide, the following entries are already answered.
molecule=CC1=C(/C=C/C(C)=C/C=C/C(C)=C/CO)C(C)(C)CCC1.O=C(O)Cc1cc(I)c(Oc2ccc(O)c(I)c2)c(I)c1 observed=1
molecule="CC(C)c1cccc(C(C)C)c1O [PROPOFOL]" observed=1
molecule="CC1(C)S[C@@H]2[C@H](NC(=O)[C@H](NC(=O)N3CCN(S(C)(=O)=O)C3=O)c3ccccc3)C(=O)N2[C@H]1C(=O)O [MEZLOCILLIN]" observed=1

Alright, here's another molecule for you.
Give its Hepatotoxicity (choleostasis) value. Item: Nc1ccc(S(=O)(=O)Nc2ncccn2)cc1 [SULFADIAZINE]
1

* * *

- assay-conditions: human
result-type: Hepatotoxicity (severe hepatitis)
Write the number on its own, no unit after it.

compound="CCCCN1CCCCC1C(=O)Nc1c(C)cccc1C (stereo not given) [BUPIVACAINE]" observed=0
compound="CS(=O)(=O)c1ccc([C@@H](O)[C@@H](CO)NC(=O)C(Cl)Cl)cc1 [THIAMPHENICOL]" observed=0
compound="CC(CN1c2ccccc2Sc2ccccc21)N(C)C (stereo not given) [PROMETHAZINE]" observed=0
compound="O=C(Oc1ccccc1C(=O)O)c1ccccc1O [SALSALATE]" observed=0
compound="Clc1ccc(COC(Cn2ccnc2)c2ccc(Cl)cc2Cl)cc1 (stereo not given) [ECONAZOLE]" observed=0
compound="O=c1cc[nH]c(=S)[nH]1 [THIOURACIL]" observed=1
compound="CC(C)=CCC1C(=O)N(c2ccccc2)N(c2ccccc2)C1=O [FEPRAZONE]" observed=0
compound="Cc1nc2ccc(CN(C)c3ccc(C(=O)N[C@@H](CCC(=O)O)C(=O)O)s3)cc2c(=O)[nH]1 [RALTITREXED]" observed=3
compound="C=CCC1(C(C)C#CCC)C(=O)N=C(O)N(C)C1=O (stereo not given) [METHOHEXITAL]" observed=0
compound="CC[C@H]1[C@@H]2C[C@H]3[C@@H]4N(C)c5ccccc5[C@]45C[C@@H]([C@@H]2[C@H]5O)N3[C@@H]1O [AJMALINE]" observed=0

Name the recorded Hepatotoxicity (severe hepatitis) for CCCCC(C)(O)C/C=C/[C@H]1[C@H](O)CC(=O)[C@@H]1CCCCCCC(=O)OC (stereo not given in full) [MISOPROSTOL] .
0

Form field: reported Hepatotoxicity (severe hepatitis) of NS(=O)(=O)Cc1noc2ccccc12 [ZONISAMIDE]
0

Please look up its Hepatotoxicity (severe hepatitis): NCCCNc1ccc2c3c(nn2CCNCCO)-c2c(O)ccc(O)c2C(=O)c13 [PIROXANTRONE]
0
